B1: HDV Ribozyme (parent)
chain: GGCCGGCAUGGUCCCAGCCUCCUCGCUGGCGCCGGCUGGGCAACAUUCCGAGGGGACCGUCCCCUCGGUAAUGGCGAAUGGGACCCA

# Variants of: B1
# protocol_text: self-cleavage, relative activity (ratio to wild type); higher = more cleavage; co-transcriptional
Would you please tag the item y when its self-cleavage is 0.1 or above, and n when it is below?

Examples from the recorded data:
C7G C49A = y
C26A C63A = y
C44A U60C = y
G6U U46A = n
G5A C36A = n
A43G G54A = y
G2C G76A = y
U69C A83G = y

Hi, just wondering whether C4A G76A shows self-cleavage of 0.1 or higher.
y

Is the recorded value of self-cleavage equal to or greater than 0.1 for this variant? G29U C62A
n

# check: self-cleavage of G38U U79G is greater than or equal to 0.1
y
